# Test system: NCI-H522 lung
# experiment: NCI-60 one-dose screen, 48 h (100 = growth as untreated, 0 = no growth, -100 = all killed)
# particulars: 10 µM unless noted
About 83,000 compounds went through this panel and 20% of them were active in at least one assay; those are over-represented in the sample as a whole.
The label 1 is reserved for growth strictly under 70%; 0 covers values equal to or above it.

molecule: FC(F)(F)c1cn(CC2CNC2)c2ncnc(Cl)c12
target_under_test: NCI-H522 lung
category_label: 0
//
molecule: COc1cc(Nc2ncccc2C(=O)Nc2nc3ccc(F)cc3s2)cc(OC)c1OC
target_under_test: NCI-H522 lung
category_label: 1
//
molecule: COc1ccccc1NC(=O)COc1ccc(/C=C2/Oc3cc4occc4c(OC)c3C2=O)cc1OC
target_under_test: NCI-H522 lung
category_label: 0
//
molecule: CC1(C)Cc2c(Br)c(Br)c(Br)c(OCC(O)CN3CCN(c4ccccn4)CC3)c2O1 (stereo not given)
target_under_test: NCI-H522 lung
category_label: 1
//
molecule: O=C(O)c1ccc(-c2nn(-c3ccc(C(=O)O)cc3)cc2/C=N/Nc2c(F)c(F)cc(F)c2F)cc1
target_under_test: NCI-H522 lung
category_label: 0
//
molecule: CCOC(=O)c1noc2c1CCc1cn(Cc3cc(OC)cc(OC)c3)cc1-2
target_under_test: NCI-H522 lung
category_label: 1
//
molecule: COc1cccc(-c2nc3sccn3c2-c2ccnc(NCCNC(=O)Nc3cccc(C(F)(F)F)c3)n2)c1
target_under_test: NCI-H522 lung
category_label: 1
